Hi there, I'd appreciate the recorded koff for every entry that follows.
Biological target: T1, biotinylated Aβ1-40 peptide (biotinylated (N-biotinylated in Example 7))
T1 construct: captured on streptavidin (SA) chip; also called Biotinylated Aβ peptide 1-40; Aβ1-40 on SA chip
T1 sequence (peptide, as listed by the source): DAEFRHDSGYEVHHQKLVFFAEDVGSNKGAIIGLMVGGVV
Experiment: SPR, Fab over Aβ1-40 on SA chip
Report the value in s⁻¹ with no unit label.

Request: Please report koff for the following binder: 9TL variant M28 Fab (Fab, V domains shown, Fab; human IgG2 CH1 and kappa CL) VH: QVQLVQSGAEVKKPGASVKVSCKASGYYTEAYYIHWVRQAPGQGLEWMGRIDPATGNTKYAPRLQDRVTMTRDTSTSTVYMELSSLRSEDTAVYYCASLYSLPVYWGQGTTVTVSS VL: DVVMTQSPLSLPVTLGQPASISCKSSQSLLYSDAKTYLNWFQQRPGQSPRRLIYQISRLDPGVPDRFSGSGSGTDFTLKISRVEAEDVGVYYCLQGTHYPMLFGQGTRLEIKR
Result: 0.014

Request: Given 9TL variant M31 Fab (Fab, V domains shown, Fab; human IgG2 CH1 and kappa CL) VH: QVQLVQSGAEVKKPGASVKVSCKASGYYTEAYYIHWVRQAPGQGLEWMGRIDPATGNTKYAPRLQDRVTMTRDTSTSTVYMELSSLRSEDTAVYYCASVYSLPVYWGQGTTVTVSS VL: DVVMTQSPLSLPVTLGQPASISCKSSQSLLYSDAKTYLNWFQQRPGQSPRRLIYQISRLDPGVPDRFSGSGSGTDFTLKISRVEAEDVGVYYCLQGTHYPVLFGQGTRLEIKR , respond with its koff.
Result: 0.01

Request: Assign koff to the following record: 9TL variant W1 Fab (Fab, V domains shown, Fab; human IgG2 CH1 and kappa CL) VH: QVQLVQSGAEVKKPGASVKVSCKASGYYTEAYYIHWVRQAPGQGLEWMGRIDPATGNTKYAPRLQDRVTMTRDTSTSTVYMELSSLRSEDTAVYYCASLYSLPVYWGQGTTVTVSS VL: DVVMTQSPLSLPVTLGQPASISCKSSQSLLASDSKTYLNWFQQRPGQSPRRLIYQISRLDPGVPDRFSGSGSGTDFTLKISRVEAEDVGVYYCLQGTHYPVTFGQGTRLEIKR
Result: 0.009
